// provenance: ChEMBL document CHEMBL3885861

# Species: Rattus norvegicus
# Procedure Text: Open TG-GATES - Regimen: Single
# Format: toxicity, organism-based, Sprague-Dawley
# Set-up: regimen Single, gender Male, age 6 weeks
# Run Conditions: in vivo, po, 0 mg/kg, 9 h, tissue Blood, route gavage, dose level Control
Measurement Label: RBC (x10_4/ul)
Give the number; x10_4/ul is assumed, so skip it.

CN1C(=O)CCS(=O)(=O)C1c1ccc(Cl)cc1 (centres undefined): 631.4

Q: # lookup: RBC of `O=C(OC[C@H]1O[C@@H](OC(=O)c2cc(O)c(O)c(OC(=O)c3cc(O)c(O)c(O)c3)c2)[C@H](OC(=O)c2cc(O)c(O)c(OC(=O)c3cc(O)c(O)c(O)c3)c2)[C@@H](OC(=O)c2cc(O)c(O)c(OC(=O)c3cc(O)c(O)c(O)c3)c2)[C@@H]1OC(=O)c1cc(O)c(O)c(OC(=O)c2cc(O)c(O)c(O)c2)c1)c1cc(O)c(O)c(OC(=O)c2cc(O)c(O)c(O)c2)c1`
Ans: 583.4

Q: # lookup: RBC of `CNC(=C[N+](=O)[O-])NCCSCc1ccc(CN(C)C)o1`
Ans: 627.6

Q: # lookup: RBC of `CCCc1cc(=O)[nH]c(=S)[nH]1`
Ans: 599.2

----------
# Species: Rattus norvegicus
# Procedure Text: Open TG-GATES - Regimen: Daily Repeat
# Type: toxicity, organism-based, Sprague-Dawley
# Parameters: regimen Daily Repeat, gender Male, age 6 weeks
# Run Conditions: in vivo, po, 300 mg/kg, 72 h, tissue Plasma, route gavage, dose level Middle, time 3 day
Reported values of CRE for individual entries
Give the number; mg/dL is assumed, so skip it.

CN/C(=N/CCSCc1nc[nH]c1C)NC#N: 0.4
Cc1nnc2n1-c1ccc(Cl)cc1C(c1ccccc1Cl)=NC2: 0.2

With those in mind, consider the next compound.
Q: # lookup: CRE of `CNC(=C[N+](=O)[O-])NCCSCc1ccc(CN(C)C)o1`
Ans: 0.4

----------
# Organism: Rattus norvegicus
# Procedure Text: Open TG-GATES - Regimen: Single
# Assay type: toxicity, organism-based, Sprague-Dawley
# Parameters: regimen Single, gender Male, age 6 weeks
# Run Conditions: in vivo, po, 1000 mg/kg, 24 h, tissue Plasma, route gavage, dose level High
Measurement Label: PL (mg/dL)
Give the number; mg/dL is assumed, so skip it.

Worked examples, 4 compounds total:
COC(=O)C1=C(C)NC(C)=C(C(=O)OC)C1c1ccccc1[N+](=O)[O-] [NIFEDIPINE]: 126.4
O=C(OC[C@H]1O[C@@H](OC(=O)c2cc(O)c(O)c(OC(=O)c3cc(O)c(O)c(O)c3)c2)[C@H](OC(=O)c2cc(O)c(O)c(OC(=O)c3cc(O)c(O)c(O)c3)c2)[C@@H](OC(=O)c2cc(O)c(O)c(OC(=O)c3cc(O)c(O)c(O)c3)c2)[C@@H]1OC(=O)c1cc(O)c(O)c(OC(=O)c2cc(O)c(O)c(O)c2)c1)c1cc(O)c(O)c(OC(=O)c2cc(O)c(O)c(O)c2)c1 [TANNIC ACID]: 133.4
Cc1nnc2n1-c1ccc(Cl)cc1C(c1ccccc1Cl)=NC2 [TRIAZOLAM]: 167.6
CN/C(=N/CCSCc1nc[nH]c1C)NC#N [CIMETIDINE]: 148

With those in mind, consider the next compound.
Q: # lookup: PL of CNC(=C[N+](=O)[O-])NCCSCc1ccc(CN(C)C)o1 [RANITIDINE]
Ans: 155.6
